System: Helicobacter pylori
Measurement protocol: Antimicrobial activity against Helicobacter pylori isolated from gastrointestinal disease patient after 72 hrs by Etest method
Assay type: functional
Property measured: MIC90 (µg/mL)

Smiles entry: C=C(C/C=C(\C)CCC=C(C)C)CCC(C)(C)/C=C/CC/C(C)=C/CO[C@@H](COP(=O)(O)O[C@H]1O[C@H](C(N)=O)[C@@](C)(O)[C@H](OC(N)=O)[C@H]1O[C@@H]1O[C@H](CO[C@@H]2O[C@H](CO)[C@@H](O)[C@H](O)[C@H]2O)[C@@H](O[C@@H]2O[C@H](C)[C@@H](O[C@@H]3O[C@H](C(=O)NC4=C(O)CCC4=O)[C@H](O)[C@H](O)[C@H]3O)[C@H](O)[C@H]2NC(C)=O)[C@H](O)[C@H]1NC(C)=O)C(=O)O
Target entity: Helicobacter pylori
Property measured: MIC90
Readout value: 2

1: Cc1ncc([N+](=O)[O-])n1CCO
2: CN(C)[C@@H]1C(O)=C(C(N)=O)C(=O)[C@@]2(O)C(O)=C3C(=O)c4c(O)cccc4[C@@](C)(O)[C@H]3C[C@@H]12
3: CC[C@H]1OC(=O)[C@H](C)[C@@H](O[C@H]2C[C@@](C)(OC)[C@@H](O)[C@H](C)O2)[C@H](C)[C@@H](O[C@@H]2O[C@H](C)C[C@H](N(C)C)[C@H]2O)[C@](C)(OC)C[C@@H](C)C(=O)[C@H](C)[C@@H](O)[C@]1(C)O
4: C[C@H]1COc2c(N3CCN(C)CC3)c(F)cc3c(=O)c(C(=O)O)cn1c23.C[C@H]1COc2c(N3CCN(C)CC3)c(F)cc3c(=O)c(C(=O)O)cn1c23.O
Highest MIC90 first, then in falling order down to the smallest. When ranking, write the labels in the order the request describes.
1, 3, 4, 2
(1: 16 µg/mL, 3: 8 µg/mL, 4: 1 µg/mL, 2: 0.5 µg/mL)

Origin of values: ChEMBL document CHEMBL3259665
